# Tested on: 29 types of breast cancer cell lines
# assay.remarks: Measurement of IC50 of doxorubicin, Celltiter Glo Luminescent Cell Viability Assay
# Assay type: cell-based
# conditions: median over 29 human breast cancer cell lines; doxorubicin 0-2000 nM; growth measured 72 hours after culture-medium exchange; used as threshold sensitive/nonsensitive
observation.type: IC50 (nM)
All answers are understood in nM, so give the number only.

Given the entry COc1cccc2c1C(=O)c1c(O)c3c(c(O)c1C2=O)C[C@@](O)(C(=O)CO)C[C@@H]3O[C@H]1C[C@H](N)[C@H](O)[C@H](C)O1 , report its measured IC50.
392

Provenance of the data: patent US20110244497A1
